Source: the supplement of paper PMC11208160

Assay summary: recombinant barcode read abundance after kanamycin selection (control-corrected) (log10(CPM+1)); higher = more efficient recombination; sequences stand for … in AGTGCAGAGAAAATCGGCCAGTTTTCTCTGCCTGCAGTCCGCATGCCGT…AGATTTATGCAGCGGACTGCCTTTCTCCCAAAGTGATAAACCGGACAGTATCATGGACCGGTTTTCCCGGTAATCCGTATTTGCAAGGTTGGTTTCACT; site = the 11-nt target
Each entry gets F if its recombinant barcode read abundance (log10) stays under 0.07, and T if its recombinant barcode read abundance (log10) is 0.07 or above.

Chain sequence | Class label
CCGCGCCCTTGGGTTCTAACCTGTTGCAT (site CCGCGCCCTAT) | T
TGATCCACTTGGGTTCTAACCTGTTGCCT (site AGATCCACTAG) | F
TACCTGCCTTGGGTTCTAACCTGTTGCGT (site GCCCTGCCTAC) | F
GGTCGCGCTTGGGTTCTAACCTGTTGCCT (site GGTCGGGCTAG) | T
GTAGCCACTTGGGTTCTAACCTGTTGCCT (site GTTGCCACTAG) | T

---

Assay summary: recombinant barcode read abundance after kanamycin selection (control-corrected) (log10(CPM+1)); higher = more efficient recombination; sequences stand for … in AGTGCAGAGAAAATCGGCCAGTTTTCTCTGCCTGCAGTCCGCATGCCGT…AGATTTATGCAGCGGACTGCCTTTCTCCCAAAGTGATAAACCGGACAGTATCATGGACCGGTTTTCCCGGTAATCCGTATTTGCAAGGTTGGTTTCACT; site = the 11-nt target
// recombinant barcode read abundance (log10) lookup, one value per entry
Quantity name: recombinant barcode read abundance (log10)

Chain sequence | Value measured
TACGACGCTTGGGTTCTAACCTGTTGCCT (site TAAGACGCTAG) | 0.0663
ATAGCTACTTGGGTTCTAACCTGTTGCCT (site ATAGCAACTAG) | 0.142
TAACGACCTTGGGTTCTAACCTGTTGCCT (site TAACGACCTAG) | 1.42
AAGATACCTTGGGTTCTAACCTGTTGCTT (site AAGATACCTCA) | 0.36
TCGGATACTTGGGTTCTAACCTGTTGCCT (site TCGGATACTAC) | 0.0175
ATATTTCCTTGGGTTCTAACCTGTTGCCT (site AGATTTCCTAG) | 0.163
CCTCACTCTTGGGTTCTAACCTGTTGCTT (site CCTCACTCTAA) | 1.2
AACCCACCTTGGGTTCTAACCTGTTGCCT (site GACCCACCTAG) | 0.0506
ACTATAACTTGGGTTCTAACCTGTTGCTT (site ACTATAACTAA) | 0.401
TGGAGTACTTGGGTTCTAACCTGTTGCCT (site TGGTGTACTAG) | 0
AGCAGTCCTTGGGTTCTAACCTGTTGCTG (site TCCAGTCCTCA) | 0.0256
CATTAGACTTGGGTTCTAACCTGTTGCCT (site AATTAGACTAG) | 0.356
CGGTCCGCTTGGGTTCTAACCTGTTGCCT (site CGGTCCGCTAG) | 1.52
GGTCATACTTGGGTTCTAACCTGTTGCCT (site GGTCATACTAG) | 0.455
GCTCGACCTTGGGTTCTAACCTGTTGCTG (site GCTCGACCTCA) | 1.68
CCGCCCTCTTGGGTTCTAACCTGTTGCCT (site CGGCCCTCTAG) | 0.105
CTAGACTCTTGGGTTCTAACCTGTTGCAT (site CTAGACTCTGT) | 0.161
GGCACTACTTGGGTTCTAACCTGTTGCGT (site GGCACCACTAC) | 0.661
GAACAGCCTTGGGTTCTAACCTGTTGCGT (site GAACAGCCTAC) | 0.943
CGCTTGACTTGGGTTCTAACCTGTTGCCT (site CGCTCGACTAG) | 0.164
AGTTAGTCTTGGGTTCTAACCTGTTGCCA (site AGTTAGTCTTG) | 0.0604
CTACCCTCTTGGGTTCTAACCTGTTGCCT (site TCTAAGACTGC) | 0.122
CGGGCCTCTTGGGTTCTAACCTGTTGCTC (site CGGGCCTCTGA) | 1.23
CTATGTGCTTGGGTTCTAACCTGTTGCGA (site GTATGTGCTTT) | 0.139
GGCTCTTCTTGGGTTCTAACCTGTTGCCT (site GGCACTTCTAG) | 0.221
ACAGACGCTTGGGTTCTAACCTGTTGCCT (site ACAGTCGCTAG) | 0.0906
TGCACCTCTTGGGTTCTAACCTGTTGCTA (site TGCACCTCTTA) | 0.541
CCTTGTCCTTGGGTTCTAACCTGTTGCAG (site CGTTGTCCTTT) | 0.144
CGAGATCCTTGGGTTCTAACCTGTTGCAT (site CGAGATCCTAT) | 1.29
TGTGTCCCTTGGGTTCTAACCTGTTGCCG (site TGTGTCCCTCG) | 1.1
CCTAATACTTGGGTTCTAACCTGTTGCTT (site ACTAATCCTAA) | 0.107
TGGTTGTCTTGGGTTCTAACCTGTTGCCT (site TGGCTGTCTAG) | 0.522
CTACAACCTTGGGTTCTAACCTGTTGCTT (site CTACAACCTAA) | 1.28
CTTCAAGCTTGGGTTCTAACCTGTTGCCT (site CTTCAAGCTAG) | 0.983
GTGAGGTCTTGGGTTCTAACCTGTTGCAT (site GTGAGGTCTAA) | 0.46
CGTCCGACTTGGGTTCTAACCTGTTGCAT (site CGTTCGACTAT) | 0
CTAACCGCTTGGGTTCTAACCTGTTGCCT (site CAAACCGCTAG) | 0.471
CTACGCACTTGGGTTCTAACCTGTTGCTG (site CTACGGACTCA) | 0.112
GACTTACCTTGGGTTCTAACCTGTTGCAT (site GACTTTCCTAT) | 0.124
CGTACCTCTTGGGTTCTAACCTGTTGCTA (site CGTACCTCTGA) | 0.0598
ATTGGTTCTTGGGTTCTAACCTGTTGCCT (site ATTGGGTCTAG) | 0.0515
AGTTCGCCTTGGGTTCTAACCTGTTGCTA (site AGTGCGCCTTA) | 0.317

---

Assay summary: recombinant UMI read abundance after kanamycin selection (control-corrected) (log10(CPM+1)); higher = more efficient recombination; extreme values may be limits of the assay; sequences stand for … in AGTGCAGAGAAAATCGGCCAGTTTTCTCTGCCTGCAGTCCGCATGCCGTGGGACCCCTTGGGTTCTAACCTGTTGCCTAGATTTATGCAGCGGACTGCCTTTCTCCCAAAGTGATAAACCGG…AGGTTGGTTTCACT; site = the 11-nt donor

Chain sequence | recombinant UMI read abundance (log10)
CGAGCACCATGGACCGGTTTTCCCGGTAATCCGTATTTGGG (site CGAGCACCTCC) | 0.0175
GATGGCTCATGGACCGGTTTTCCCGGTAATCCGTATTTGCC (site GATGGCTCTGG) | 2.65
ACACATGCATGGACCGGTTTTCCCGGTAATCCGTATTTGAC (site ACACATCCTGT) | 1.71
AACGGCCCATGGACCGGTTTTCCCGGTAATCCGTATTTGTT (site TACGGCCCTAA) | 0.00583
GGCAATCCATGGACCGGTTTTCCCGGTAATCCGTATTTGAA (site GGCAATCCTTA) | 0.00549
AATGTGTCATGGACCGGTTTTCCCGGTAATCCGTATTTGAC (site AATTTGTCTGT) | 0
TTCTATACATGGACCGGTTTTCCCGGTAATCCGTATTTGAC (site ATCTATACTGT) | 0
TGTTCTCCATGGACCGGTTTTCCCGGTAATCCGTATTTGTA (site TGTTCGCCTTA) | 0.0191
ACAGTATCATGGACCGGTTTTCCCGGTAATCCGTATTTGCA (site CCAGGATCTTG) | 0.811
TCCCATACATGGACCGGTTTTCCCGGTAATCCGTATTTGCG (site TCCCATACTCG) | 0.00752
TCAGAGCCATGGACCGGTTTTCCCGGTAATCCGTATTTGCG (site TCAGAGACTCG) | 0.00993
CTGGAACCATGGACCGGTTTTCCCGGTAATCCGTATTTGCA (site CTGGAACCTTG) | 0
GCCGACACATGGACCGGTTTTCCCGGTAATCCGTATTTGTA (site GCCGACACTTA) | 1.4
AGCCTAGCATGGACCGGTTTTCCCGGTAATCCGTATTTGTT (site TGCCTAGCTAA) | 0.00782
TCGTTGTCATGGACCGGTTTTCCCGGTAATCCGTATTTGTC (site TCGTTGTCTGA) | 0.41
CCAGTGTCATGGACCGGTTTTCCCGGTAATCCGTATTTGCA (site CCAGTGTCTTG) | 1.5
TACTCCTCATGGACCGGTTTTCCCGGTAATCCGTATTTGCC (site CACTCCTCTGG) | 1.86
AATGTAACATGGACCGGTTTTCCCGGTAATCCGTATTTGCT (site AATGTATCTAG) | 1.67
